meta.source: ChEMBL document CHEMBL3352559

Experiment Notes: Acute toxicity in KM mouse assessed as survival at 450 mg/kg, po up to 14 days (reference value: 100%)
Assay type: organism-based
Design: dose 450 mg/kg, route oral
Test Conditions: in vivo
Recorded Endpoint: survival at 336 h (%)
One number for each entry, in %.

In one line, give reported survival at 336 h of the entry CN(C)CCC(c1ccc(Cl)c(Cl)c1)N1CCOCC1 (stereo unspecified) . 100

* * *

Experiment Notes: Acute toxicity in KM mouse assessed as survival at 600 mg/kg, po up to 14 days (reference value: 100%)
Type: organism-based
Parameters: dose 600 mg/kg, route oral
Test Conditions: in vivo
Recorded Endpoint: survival at 336 h (%)
One number for each entry, in %.

In one line, give reported survival at 336 h of the entry CN(C)CCC(c1ccc(Cl)c(Cl)c1)N1CCOCC1 (stereo unspecified) . 80

* * *

Target Of Assay: L-type calcium channel, verapamil binding site (Homo sapiens, UniProt O60840+Q01668+Q13698+Q13936)
Experiment Notes: Inhibition of human L-type calcium channel verapamil binding site at 10 uM by [3H]D88 binding assay relative to control
Recorded Endpoint: inhibition at 10 µM
State the value with its unit after it.

In one line, give reported inhibition at 10 µM of the entry CN(C)CCC(c1ccc(Cl)c(Cl)c1)N1CCOCC1 (stereo unspecified) . 41.8%

* * *

Experiment Notes: Elimination half life in Sprague-Dawley rat at 0.5 mg/kg, iv
Type: ADME, organism-based
Parameters: dose 0.5 mg/kg, route intravenous
Test Conditions: in vivo, read-out: beta t1/2 (converted)
Recorded Endpoint: half-life (h)
Answers are plain numbers, in h.

In one line, give reported half-life of the entry CN(C)CCC(c1ccc(Cl)c(Cl)c1)N1CCOCC1 (stereo unspecified) . 1

* * *

Experiment Notes: Oral bioavailability in Sprague-Dawley rat at 2 mg/kg
Type: ADME, organism-based
Test Conditions: in vivo
Recorded Endpoint: bioavailability

In one line, give reported bioavailability of the entry CN(C)CCC(c1ccc(Cl)c(Cl)c1)N1CCOCC1 (stereo unspecified) . 19.4%

* * *

Target Of Assay: UniProtKB P23975
Sequence (P23975 whole entry): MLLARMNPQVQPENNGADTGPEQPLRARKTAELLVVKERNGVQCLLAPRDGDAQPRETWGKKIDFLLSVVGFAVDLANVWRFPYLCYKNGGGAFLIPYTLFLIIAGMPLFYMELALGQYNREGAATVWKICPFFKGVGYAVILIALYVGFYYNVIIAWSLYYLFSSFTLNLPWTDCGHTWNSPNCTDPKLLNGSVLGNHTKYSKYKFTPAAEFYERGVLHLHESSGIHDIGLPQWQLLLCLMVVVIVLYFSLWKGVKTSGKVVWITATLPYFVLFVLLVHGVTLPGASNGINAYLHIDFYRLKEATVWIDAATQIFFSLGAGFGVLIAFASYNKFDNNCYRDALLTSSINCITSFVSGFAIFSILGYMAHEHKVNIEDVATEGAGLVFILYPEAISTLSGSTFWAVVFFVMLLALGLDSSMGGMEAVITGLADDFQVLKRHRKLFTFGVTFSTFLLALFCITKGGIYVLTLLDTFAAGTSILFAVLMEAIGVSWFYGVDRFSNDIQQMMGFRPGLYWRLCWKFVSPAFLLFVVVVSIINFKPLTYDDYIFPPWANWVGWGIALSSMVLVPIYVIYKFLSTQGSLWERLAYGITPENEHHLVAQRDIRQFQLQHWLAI
Experiment Notes: Inhibition of [3H]-NE uptake in human norepinephrine transporter expressed in HEK293 cells at 10 uM by scintillation counting
Format: cell-based
// label = Met if inhibition is not less than 70%, otherwise Not met

Before answering, review these 3 worked examples.
Clc1ccc(C(CCN2CCCCC2)N2CCOCC2)cc1Cl (stereo unspecified)
Met
CCOC(=O)C1CCCN(C(CCN2CCOCC2)c2ccc(Cl)c(Cl)c2)C1 (stereo unspecified)
Not met
C1=C(Cc2ccccc2)CCN(CCC(c2csc3ccccc23)N2CCOCC2)C1 (stereo unspecified)
Met

Decide: inhibition of CN(C)CCC(c1ccc(C(F)(F)F)cc1)N1CCCC1 (stereo unspecified) >= 70%? Met

Decide: inhibition of CN(C)CCC(c1ccc(F)cc1)N1CCOCC1 (stereo unspecified) >= 70%? Met

Decide: inhibition of CN(C)CCC(c1ccc(F)cc1)N1CCCCC1 (stereo unspecified) >= 70%? Met

* * *

Experiment Notes: AUC (0 to time) in Sprague-Dawley rat at 2 mg/kg, po
Assay type: ADME, organism-based
Design: dose 2 mg/kg, route oral
Test Conditions: plasma
Recorded Endpoint: AUC (ng·h/mL)
One number for each entry, in ng·h/mL.

In one line, give reported AUC of the entry CN(C)CCC(c1ccc(Cl)c(Cl)c1)N1CCOCC1 (stereo unspecified) . 61

* * *

Target Of Assay: Sodium-dependent serotonin transporter (Homo sapiens)
Sequence (P31645 whole entry, looked up): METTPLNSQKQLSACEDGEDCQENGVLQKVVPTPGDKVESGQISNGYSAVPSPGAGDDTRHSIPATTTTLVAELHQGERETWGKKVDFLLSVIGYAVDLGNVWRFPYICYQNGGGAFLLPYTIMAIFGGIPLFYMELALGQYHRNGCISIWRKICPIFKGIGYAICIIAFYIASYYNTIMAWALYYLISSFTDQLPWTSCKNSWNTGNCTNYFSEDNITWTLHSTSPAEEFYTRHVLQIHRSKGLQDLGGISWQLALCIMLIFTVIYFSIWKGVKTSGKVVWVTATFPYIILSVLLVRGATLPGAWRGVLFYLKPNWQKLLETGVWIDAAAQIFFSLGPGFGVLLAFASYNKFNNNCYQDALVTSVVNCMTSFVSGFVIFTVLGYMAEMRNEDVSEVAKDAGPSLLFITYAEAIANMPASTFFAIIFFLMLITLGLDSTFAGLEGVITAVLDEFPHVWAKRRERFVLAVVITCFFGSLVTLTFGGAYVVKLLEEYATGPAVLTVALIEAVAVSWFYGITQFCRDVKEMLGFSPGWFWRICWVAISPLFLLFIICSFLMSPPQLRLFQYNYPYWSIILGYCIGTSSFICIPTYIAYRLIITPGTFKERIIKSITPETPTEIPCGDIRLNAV
Experiment Notes: Inhibition of [3H]-serotonin uptake in human SERT expressed in HEK293 cells at 10 uM by scintillation counting
Type: cell-based
Kindly state inhibition for each of the entries shown.
Answers are plain numbers, in %.

Record excerpt, results attached:
Clc1ccc(C(CCN2CC=C(Cc3ccccc3)CC2)N2CCCC2)cc1Cl (stereo not drawn)
79.1
COc1ccc(C(CCN(C)C)N2CCOCC2)cc1 (stereo not drawn)
25.9
CN(C)CCC(c1ccc(F)cc1)N1CCCC1 (stereo not drawn)
70.2
Clc1ccc(C(CCN2CCOCC2)N2CCOCC2)cc1Cl (stereo not drawn)
73.8
CNCCC(c1ccc(F)cc1F)N1CCOCC1 (stereo not drawn)
86.1
C1=C(Cc2ccccc2)CCN(CCC(c2csc3ccccc23)N2CCNCC2)C1 (stereo not drawn)
73.9
CN(C)CCC(c1ccc(F)cc1)N1CCCCC1 (stereo not drawn)
62.7
CCOC(=O)C1CCCN(C(CCN2CCOCC2)c2ccc(Cl)c(Cl)c2)C1 (stereo not drawn)
34.9
CN(C)CCC(c1ccc(F)cc1)N1CCOCC1 (stereo not drawn)
50.7
CN(C)CCC(c1ccc(Cl)cc1)N1CCOCC1 (stereo not drawn)
58.5

Please give inhibition for each item listed below.
1. CCN(CC)CCC(c1ccc(Cl)c(Cl)c1)N1CCCC1 (stereo not drawn)
2. Clc1ccc(C(CCN2CCCCC2)N2CCOCC2)cc1Cl (stereo not drawn)
3. CN(CCC(c1ccc(Cl)c(Cl)c1)N1CCOCC1)Cc1ccccc1 (stereo not drawn)
4. Cc1ccc(C(CCN(C)C)N2CCOCC2)cc1 (stereo not drawn)

1: 76.5; 2: 59.9; 3: 35.6; 4: 39.2

Please give inhibition for each item listed below.
1. CN(C)CCC(c1ccc(C(F)(F)F)cc1)N1CCCC1 (stereo not drawn)
2. CN(CCC(c1cc2ccccc2s1)N1CCOCC1)Cc1ccccc1 (stereo not drawn)

57.6
30.3

Please give inhibition for each item listed below.
1. CN(C)CCC(c1ccc(C(F)(F)F)cc1)N1CCOCC1 (stereo not drawn)
2. CN(CCC(c1ccc(F)cc1F)N1CCOCC1)Cc1ccccc1 (stereo not drawn)

1. 46.2
2. 24.1

Please give inhibition for each item listed below.
1. CN(C)CCC(c1ccc(F)cc1F)N1CCOCC1 (stereo not drawn)
2. C1=C(Cc2ccccc2)CCN(CCC(c2csc3ccccc23)N2CCOCC2)C1 (stereo not drawn)
3. COc1ccc2cc(C(CCN3CC=C(Cc4ccccc4)CC3)N3CCCC3)ccc2c1Cl (stereo not drawn)
4. COc1ccc2cc(C(CCN(C)Cc3ccccc3)N3CCOCC3)ccc2c1Cl (stereo not drawn)
5. CC1CCCN(C(CCN2CCOCC2)c2ccc(Cl)c(Cl)c2)C1 (stereo not drawn)

55.6
65.4
79.9
47.3
30.5

* * *

Experiment Notes: Drug uptake in Sprague-Dawley rat brain at 0.5 mg/kg ip after 0.25 hrs
Recorded Endpoint: concentration at 0.25 h (ng/mL)
Give bare numbers, in ng/mL.

In one line, give reported concentration at 0.25 h of the entry CN(C)CCC(c1ccc(Cl)c(Cl)c1)N1CCOCC1 (stereo unspecified) . 925

* * *

Experiment Notes: Drug uptake in Sprague-Dawley rat brain at 0.5 mg/kg iv after 4 hrs
Type: ADME, organism-based
Set-up: dose 0.5 mg/kg, route intravenous
Test Conditions: read-out: Drug uptake
Recorded Endpoint: concentration at 4 h (ng/mL)
Give bare numbers, in ng/mL.

In one line, give reported concentration at 4 h of the entry CN(C)CCC(c1ccc(Cl)c(Cl)c1)N1CCOCC1 (stereo unspecified) . 42.2

* * *

Experiment Notes: Acute toxicity in KM mouse assessed as survival at 750 mg/kg, po up to 14 days (reference value: 100%)
Type: organism-based
Design: dose 750 mg/kg, route oral
Test Conditions: in vivo
Recorded Endpoint: survival at 336 h (%)
Answers are plain numbers, in %.

In one line, give reported survival at 336 h of the entry CN(C)CCC(c1ccc(Cl)c(Cl)c1)N1CCOCC1 (stereo unspecified) . 60

* * *

Experiment Notes: Ratio of drug level in Sprague-Dawley rat brain to plasma at 0.5 mg/kg iv after 0.08 hrs
Type: ADME, organism-based
Set-up: dose 0.5 mg/kg, route intravenous
Test Conditions: read-out: BPR
Recorded Endpoint: Kp at 0.08 h

In one line, give reported Kp at 0.08 h of the entry CN(C)CCC(c1ccc(Cl)c(Cl)c1)N1CCOCC1 (stereo unspecified) . 23.1

* * *

Target Of Assay: Sodium-dependent dopamine transporter (Homo sapiens, UniProt Q01959)
Sequence (Q01959 whole entry): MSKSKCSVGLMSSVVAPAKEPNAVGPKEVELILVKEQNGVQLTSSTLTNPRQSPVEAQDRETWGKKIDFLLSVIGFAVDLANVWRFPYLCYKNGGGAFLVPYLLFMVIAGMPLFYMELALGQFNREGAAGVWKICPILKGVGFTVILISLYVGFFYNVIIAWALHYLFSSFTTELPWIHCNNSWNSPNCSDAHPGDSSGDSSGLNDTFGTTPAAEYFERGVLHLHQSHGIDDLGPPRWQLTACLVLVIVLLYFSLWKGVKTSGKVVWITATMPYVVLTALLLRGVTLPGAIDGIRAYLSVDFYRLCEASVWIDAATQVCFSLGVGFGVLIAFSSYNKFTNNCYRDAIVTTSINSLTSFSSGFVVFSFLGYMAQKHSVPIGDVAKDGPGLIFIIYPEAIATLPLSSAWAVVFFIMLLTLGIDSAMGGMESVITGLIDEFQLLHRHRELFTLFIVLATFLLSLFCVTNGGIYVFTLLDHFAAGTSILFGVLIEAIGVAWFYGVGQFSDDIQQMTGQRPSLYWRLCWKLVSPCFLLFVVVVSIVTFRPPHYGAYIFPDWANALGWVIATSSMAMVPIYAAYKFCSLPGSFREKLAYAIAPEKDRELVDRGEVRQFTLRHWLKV
Experiment Notes: Inhibition of [3H]-DA uptake in human dopamine transporter expressed in CHO cells at 10 uM by scintillation counting
// label = Criterion met if inhibition is not less than 70%, otherwise Criterion not met

Before answering, review these 5 worked examples.
CN(CCC(c1ccc(F)cc1F)N1CCOCC1)Cc1ccccc1 (configuration not stated)
Criterion not met
CN(C)CCC(c1cc2ccccc2s1)N1CCOCC1 (configuration not stated)
Criterion not met
CN(C)CCC(c1ccc(C(F)(F)F)cc1)N1CCCC1 (configuration not stated)
Criterion not met
COc1ccc(C(CCN(C)C)N2CCOCC2)cc1 (configuration not stated)
Criterion not met
CN(C)CCC(c1ccc(F)cc1)N1CCCCC1 (configuration not stated)
Criterion not met

Decide: inhibition of CN(C)CCC(c1ccc(F)cc1)N1CCCC1 (configuration not stated) >= 70%? Criterion not met

Decide: inhibition of CN(CCC(c1cc2ccccc2s1)N1CCOCC1)Cc1ccccc1 (configuration not stated) >= 70%? Criterion not met
